System: SN12C renal
Experiment: NCI tumour cell line growth inhibition, 48 h
value_type: TGI

Value lookup for TGI; key = "NCCC(O)(P(=O)(O)O)P(=O)(O)O" > 100 µM

Value lookup for TGI; key = "COc1ccc(/C=C/C(=O)N[C@@H]2C(=O)N3[C@@H]2SC(C)(C)[C@@H]3C(=O)O)cc1" > 100 µM

Value lookup for TGI; key = COc1cccc(N2C(=O)CSC2c2cc(OC)c(OC)c(OC)c2)c1 (stereo not drawn) > 100 µM

Value lookup for TGI; key = "O=C(CCCl)NNC1=NCCN1" > 100 µM

Value lookup for TGI; key = CCOC(=O)C1=c2[nH]c3cccc4cccc(c43)n2C=C(C(C)=O)C1CC(C)=O (stereo not drawn) > 100 µM

Value lookup for TGI; key = Nc1ccn(C2CC(CO)C(O)C2O)c(=O)n1 (stereo not drawn) > 57.7 µM

Value lookup for TGI; key = O=S(CCCl)c1c2ccccc2nc2ccccc12 (stereo not drawn) 88.7 µM

Value lookup for TGI; key = "Cc1ccc(C)c(-c2csc(Nc3ccc(C)c(C)c3)n2)c1" > 100 µM

Value lookup for TGI; key = "CCn1cnc2c(Nc3cccc(Cl)c3)nc(N[C@@H]3CCCC[C@@H]3N)nc21" 7.62 µM

Value lookup for TGI; key = N#Cc1cc([N+](=O)[O-])ccc1NC(=O)C(=O)C(C(=O)/C=C/c1ccccc1)C1OC(=O)c2ccccc21 (stereo not drawn) > 100 µM

Value lookup for TGI; key = CCOC(=O)CCC(NC(=O)c1ccc(Nc2nc3ccccc3nc2-c2cccs2)cc1)C(=O)OCC (stereo not drawn) > 100 µM

Value lookup for TGI; key = Cc1ccc(Cl)c(NC(=O)C(=O)C(C(=O)c2ccncc2)C2OC(=O)c3ccccc32)c1 (stereo not drawn) > 100 µM

Value lookup for TGI; key = "C=C1C(=O)O[C@H]2[C@H]1CC/C(COC(=O)NCc1c[nH]c3ccc(Cl)cc13)=C\CC[C@@]1(C)O[C@@H]21" 3 µM

Value lookup for TGI; key = "CCCCCCCC/C=C\CCCCCCCC(=O)NCCN(CCN)C(=O)CCCCCCC/C=C\CCCCCCCC" > 100 µM

Value lookup for TGI; key = "COc1cccc(/C=C2\CCCCCC2=O)c1" > 100 µM

Value lookup for TGI; key = CCC(C)C(NC(=O)C1CCCN1C(=O)C(NC(=O)C(C)N)C(C)C)C(N)=O (stereo not drawn) > 100 µM

Value lookup for TGI; key = "NCc1nnn(Cc2ccccc2)c1N" > 100 µM

Value lookup for TGI; key = "NS(=O)(=O)c1ccc(CNc2nc(-c3cccs3)nc3ccc(I)cc23)cc1" 57.7 µM

Value lookup for TGI; key = "Cn1c2ccccc2c(=NNc2ccccc2C(=O)O)c2ccccc21" 83.1 µM

Value lookup for TGI; key = "N/N=C1/CCCc2nonc21" > 100 µM

Value lookup for TGI; key = "CCOC(=O)c1sc(=S)c2c(C(=O)OCC)c(C(=O)OCC)sc2c1C(=O)OCC" 26.7 µM

Value lookup for TGI; key = NS(=O)(=O)c1ccc(N2N=C3c4ccccc4CC3C2c2ccc(Cl)cc2)cc1 (stereo not drawn) 25.6 µM

Value lookup for TGI; key = COC(=O)C1=C(C(=O)OC)C23C=C(C)C1C2=C(C)C1(CC1)[C@@](C)(O)C3=O (stereo partly drawn) 13.3 µM

Value lookup for TGI; key = "C=C1c2nc3ccccc3n2C=C(c2ccccc2)N1c1ccccc1" > 100 µM

Value lookup for TGI; key = "CN(C)CCCc1c[nH]c2ccccc12" > 100 µM

Value lookup for TGI; key = "N.N.NCCCCN.O=C([O-])C1(C(=O)[O-])CCC1.O=C([O-])C1(C(=O)[O-])CCC1.[Pt+4].[Pt+4]" > 100 µM

Value lookup for TGI; key = "Nc1c(-c2ccc(Cl)cc2Cl)[n+]([O-])c2ccccc2[n+]1[O-]" > 100 µM

Value lookup for TGI; key = Cc1cc(O)cc2c1O[C@@]1(C)CCC3[C@@]4(C)CC[C@H](O)C(C)(C)C4CC[C@@]3(C)[C@H]1C2 (stereo partly drawn) 25.4 µM

Value lookup for TGI; key = O=C(Nc1nc2ncn(CC(COc3ccccc3)OC(=O)c3ccccc3)c2c(=O)[nH]1)c1ccccc1 (stereo not drawn) > 100 µM

Value lookup for TGI; key = Cc1ccc(S(=O)(=O)OC2C(C3COC(C)(C)O3)OC3OC(C)(C)OC32)cc1 (stereo not drawn) > 100 µM

Value lookup for TGI; key = "ClC1=C(Cc2ccccc2)Cc2ccc3c(c21)CCC3" > 100 µM

Value lookup for TGI; key = "COc1ccc(/C=C/c2n[nH]c3ccc(N4CCOC4=O)cc23)cc1" > 100 µM

Value lookup for TGI; key = "Cn1cc(C2=C(c3cn(CCN)c4ccccc34)C(=O)NC2=O)c2ccccc21" > 25 µM

* * *

Assign TGI to each entry below.
Tested on: HS 578T breast
Test: NCI tumour cell line growth inhibition, 48 h

Value lookup for TGI; key = "O=C(CCCl)NNC1=NCCN1" > 100 µM

Value lookup for TGI; key = "C[C@@H]1C=C2C(=O)O[C@@H]3CC[C@H](C1)[C@]23O" > 100 µM

Value lookup for TGI; key = "N/N=C1\CCCc2c1no[n+]2[O-]" > 100 µM

Value lookup for TGI; key = "O=C(O)c1ccc(C(c2c(O)c3ccccc3oc2=O)c2c(O)c3ccccc3oc2=O)cc1" 62.7 µM

Value lookup for TGI; key = COC(=O)C(Cc1ccccc1)OC(=O)C(N)CC(=O)O (stereo unspecified) > 100 µM

Value lookup for TGI; key = CCOC(=O)CCC(NC(=O)c1ccc(Nc2nc3ccccc3nc2-c2cccs2)cc1)C(=O)OCC (stereo unspecified) > 100 µM

Value lookup for TGI; key = "Cn1c2ccccc2c(=NNc2ccccc2C(=O)O)c2ccccc21" 83.1 µM

Value lookup for TGI; key = "Cc1c2c(n(Cc3ccccn3)c1C)NN=C(C#N)S2(=O)=O" > 100 µM

Value lookup for TGI; key = "C=C1C(=O)O[C@H]2[C@H]1CC/C(COC(=O)NCc1c[nH]c3ccc(Cl)cc13)=C\CC[C@@]1(C)O[C@@H]21" 6.82 µM

Value lookup for TGI; key = "O=C(O)CC/C(=N\Nc1nsc2ccccc12)c1ccc(Cl)cc1" > 100 µM

Value lookup for TGI; key = "CCCc1nc2c(C)cc(-c3nc4ccccc4n3C)cc2n1Cc1ccc(-c2ccccc2C(=O)O)cc1" > 100 µM

* * *

Test system: MCF7 breast
Test: NCI tumour cell line growth inhibition, 48 h
Where a SMILES comes first, the peptide text is derived from it. [ ]: non-standard residue; d: D form. β3hI = CC[CH](C)[CH](N)CC(=O)O
Assign TGI to each entry below.

Value lookup for TGI; key = "COc1cc2nc(Nc3cccc(F)c3)nc(Nc3cc(C)[nH]n3)c2cc1OC" 3.83 µM

Value lookup for TGI; key = CCC(C)C(CC(=O)N1CCCC1C(=O)NC(C(=O)NC(C(=O)NCC(=O)NC(CC(N)=O)C(=O)NC(C(=O)NC(C(=O)NC(CCCCN)C(N)=O)C(C)CC)C(C)CC)C(C)C)C(C)CC)NC(=O)C(N)C(C)CC (stereo not drawn) (H-I[β3hI]PIVGNIIK-NH2; configuration not given here) > 50 µM

Value lookup for TGI; key = "N#CCCN(CCC#N)c1ccc(/C=C2\N=C(c3ccccc3)N(c3ccccn3)C2=O)cc1" > 100 µM

Value lookup for TGI; key = COc1ccc(C2=NN(C(C)=O)C(c3cn(-c4ccccc4)nc3-c3ccc(Cl)cc3)C2)cc1 (stereo not given) > 100 µM

Value lookup for TGI; key = COc1ccc(N2C(=O)C3c4[nH]c5cccc(C)c5c4C4CCC(C(C)(C)C)CC4C3C2=O)cc1 (stereo not given) > 10 µM

Value lookup for TGI; key = "CCCCCCCC[N+](C)(CCCCCCCC)CCCCCCCC" 1.14 µM

Value lookup for TGI; key = "CC(=O)N[C@H]1CCCC[C@@H]1OC(C)=O" > 100 µM

Value lookup for TGI; key = NS(=O)(=O)c1ccc(N2N=C3c4ccccc4CC3C2c2ccc(Cl)cc2)cc1 (stereo not given) 59.5 µM

Value lookup for TGI; key = "CCC(=C/[C@H](C)C/C=C/C(C)=C/[C@@H](C)C(=O)[C@@H](C)[C@H](O)[C@@H](C)CC)/C=C/[C@H]1OC(=O)C=C[C@H]1C" 1.18 µM

Value lookup for TGI; key = "NCCNC(=S)S" > 100 µM

Value lookup for TGI; key = "O=C(CCc1cccc(O)c1)NCCc1ccc(O)cc1" > 100 µM

Value lookup for TGI; key = "O=C(CCCl)NNC1=NCCN1" > 100 µM

Value lookup for TGI; key = CCC(C)C(NC(=O)C1CCCN1C(=O)C(NC(=O)C(C)N)C(C)C)C(N)=O (stereo not given) > 100 µM

Value lookup for TGI; key = "CC(C)n1c2c([n+](C)c1/C=C/c1ccccc1)C(=O)c1ccccc1C2=O" 0.214 µM

Value lookup for TGI; key = "O=c1oc2ccc3ccccc3c2cc1-c1nc2ccccc2o1" 20.5 µM

Value lookup for TGI; key = "COc1cc(-n2cc(-c3ccc(Cl)cc3)[nH]c2=O)cc(OC)c1OC" > 100 µM

Value lookup for TGI; key = "NS(=O)(=O)c1ccc(CCN=C=S)cc1" 3.13 µM

Value lookup for TGI; key = "FC(F)(Sc1ccccc1)c1nc2ccccc2o1" > 100 µM

Value lookup for TGI; key = "O=C(NCCO)Nc1c(C(F)(F)F)cc(-c2ccccc2)[nH]c1=O" > 100 µM

Value lookup for TGI; key = "CCCCn1c2c(n(CCCC)c1=S)-c1c(n(CCCC)c(=S)n1CCCC)SSSS2" > 100 µM
